tested on: hJNK1 (Homo sapiens, UniProt P45983)
Sequence (P45983 whole entry, looked up): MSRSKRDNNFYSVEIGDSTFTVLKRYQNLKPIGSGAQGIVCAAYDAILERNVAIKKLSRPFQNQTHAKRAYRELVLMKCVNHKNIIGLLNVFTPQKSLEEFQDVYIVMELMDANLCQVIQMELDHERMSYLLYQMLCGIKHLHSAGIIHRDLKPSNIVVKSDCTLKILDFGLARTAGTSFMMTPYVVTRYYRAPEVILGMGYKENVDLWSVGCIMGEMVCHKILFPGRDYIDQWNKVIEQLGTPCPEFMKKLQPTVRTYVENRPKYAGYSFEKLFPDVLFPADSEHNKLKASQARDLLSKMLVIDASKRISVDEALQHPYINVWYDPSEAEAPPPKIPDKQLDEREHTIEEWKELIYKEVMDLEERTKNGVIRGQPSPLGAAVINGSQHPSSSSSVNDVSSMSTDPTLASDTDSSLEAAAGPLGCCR
test name: hJNK1 | IC50
value type: IC50 (nM)

{"columns": ["substance", "value type", "experimental value"],
 "data": [
  ["H-RPKRPTTLNLF-NH2 [SEQ ID NO: 193]", "IC50", 39.5]
]}
